Run description: Cmax in beagle dog at 2 mg/kg, po
Assay type: ADME, organism-based, Canis lupus familiaris
Parameters: dose 2 mg/kg, route oral
Applied conditions: in vivo
Reported property: Cmax (nM)
The reply should contain only the number, in nM.

Need Cmax of COc1cc2ncnc(Nc3cccc(Cl)c3F)c2cc1OC(=O)N1CCN(C)C[C@H]1C , thanks.
698

---

Tested on: MDR1 (P-gp)
Run description: Efflux ratio of permeability from basolateral to apical side over apical to basolateral side in MDCK2-MDR1 cells
Format: ADME, cell-based, Canis lupus familiaris
Applied conditions: dog, MDCK-MDR1
Reported property: efflux ratio
Answer field: number only, no words.

Here's what some known entries look like.
Compound	Target desc	Endpoint result
COc1cc2ncnc(Nc3cccc(Cl)c3F)c2cc1OC(=O)N1CCN(C)CC1	MDR1 (P-gp)	0.37
COc1cc2ncnc(Nc3cccc(Cl)c3F)c2cc1CN1CCOCC1	MDR1 (P-gp)	0.33
COc1cc2ncnc(Nc3cccc(Cl)c3F)c2cc1N1CCOCC1	MDR1 (P-gp)	0.29
C#Cc1cccc(Nc2ncnc3cc(OCCOC)c(OCCOC)cc23)c1 [ERLOTINIB]	MDR1 (P-gp)	1.7
COc1cc2ncnc(Nc3cccc(Cl)c3F)c2cc1OC(=O)N1CCOCC1	MDR1 (P-gp)	0.58
COc1cc2ncnc(Nc3cccc(Cl)c3F)c2cc1OC(=O)N1CCN(C)[C@H](C)C1	MDR1 (P-gp)	0.94
COc1cc2ncnc(Nc3cccc(Cl)c3F)c2cc1OC(=O)N1CCN(C)[C@@H](C)C1	MDR1 (P-gp)	1.5
CN(C)C/C=C/C(=O)Nc1cc2c(Nc3ccc(F)c(Cl)c3)ncnc2cc1O[C@H]1CCOC1 [AFATINIB]	MDR1 (P-gp)	11

May I ask what efflux ratio has been recorded for COc1cc2ncnc(Nc3ccc(F)c(Cl)c3)c2cc1N1CCOCC1 ?
0.18

Name the reported efflux ratio value associated with the compound COc1cc2ncnc(Nc3cccc(Cl)c3F)c2cc1OC(=O)N1CC[C@@H](N(C)C)C1
0.76

Which efflux ratio value is on record for COc1cc2ncnc(Nc3cccc(Cl)c3F)c2cc1OC(=O)N1C[C@@H]2C[C@H]1CN2C ?
0.39

# get_value(readout='efflux ratio', item= COc1cc2ncnc(Nc3cccc(Cl)c3F)c2cc1C(=O)N1CCOCC1 )
2.9

// query efflux ratio value for entry COc1cc2ncnc(Nc3cccc(Cl)c3F)c2cc1OC(=O)N1CC[C@H](N(C)C)C1
0.34
